- Test system: mouse melanoma B16-BL6 cells
- testDetails: cells
- Assay type: cell-based
The following compounds are listed with their measured IC50 values.
observable: IC50 (µM)

- COc1cc(O)c(CC=C(C)C)c2c1C(=O)CC(c1ccc(O)cc1)O2 (centres unmarked) [Isoxanthohunol, isoxanthohunol]: 29
- CC(C)=CCC/C(C)=C/COc1ccc2ccc(=O)oc2c1 [Aurapten, aurapten]: 61.9

###

- System: mouse melanoma B16-BL6 cells
- testDetails: cells
- Type: cell-based
- experimentalContext: read-out: IC50 cytotoxic effect on B16-BL6; MTT, 48 hours; Table 1
- Source text: MTT reduction method is used.
Recorded IC50 values for a group of compounds are listed next.
observable: IC50 (µM)

- CC(C)=CCCC(C)(O)[C@H]1CC[C@]2(C)[C@@H]1[C@H](O)C[C@@H]1[C@@]3(C)CC[C@H](O)C(C)(C)[C@@H]3CC[C@]12C (stereo in doubt): 58
- CC(C)=CCC[C@](C)(O[C@@H]1O[C@H](CO)[C@@H](O)[C@H](O)[C@H]1O)[C@H]1CC[C@]2(C)[C@@H]1[C@H](O)C[C@@H]1[C@@]3(C)CC[C@H](O)C(C)(C)[C@@H]3[C@@H](O[C@@H]3O[C@H](CO)[C@@H](O)[C@H](O)[C@H]3O[C@@H]3OC[C@@H](O)[C@H](O)[C@H]3O)C[C@]12C [Notoginsenoside R1, notoginsenoside R1]: 111
- CC(C)=CCC[C@]1(C)CC[C@]2(C)[C@H]3CC[C@@]4(C)[C@@H](CCC(=O)[C@@H]4C)[C@]3(C)CC[C@@]2(C)C1: 93.9
- COc1ccc2ccc(=O)oc2c1CC=C(C)C: 100

###

Each entry below lists one item and its recorded pKd value.
- assayTarget: SelH (Homo sapiens, UniProt Q8IZQ5, U44C)
- Sequence (Q8IZQ5 with tags, fused parts or gaps U44C): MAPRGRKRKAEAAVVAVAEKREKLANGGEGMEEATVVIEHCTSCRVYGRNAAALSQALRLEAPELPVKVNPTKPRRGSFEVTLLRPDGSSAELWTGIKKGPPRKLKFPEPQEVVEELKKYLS
- testDetails: Surface plasmon resonance (SPR) detection of affinity between compounds and SelH
- Assay type: binding
pKd: −log10 of the molar value.
observable: pKd

- CC(=O)O[C@H](CC=C(C)C)C1=CC(=O)c2c(O)ccc(O)c2C1=O [Acetyl Shikonin, acetyl shikonin]: 9.33
- CC(C)=CC[C@@H](O)C1=CC(=O)c2c(O)ccc(O)c2C1=O [Shikonin, shikonin]: 5.27

###

- assayTarget: SelH (Homo sapiens, UniProt Q8IZQ5, U44C)
- testDetails: Surface plasmon resonance (SPR) detection of affinity between compounds and SelH
- Format: binding
- experimentalContext: SPR Biacore 8K, single-cycle kinetics; Table 1; read-out: Dissociation constant KD of compounds and SelH
observable: Kd (nM)

* CC(C)=CCC[C@](C)(O[C@@H]1O[C@H](CO)[C@@H](O)[C@H](O)[C@H]1O)[C@H]1CC[C@]2(C)[C@@H]1[C@H](O)C[C@@H]1[C@@]3(C)CC[C@H](O)C(C)(C)[C@@H]3[C@@H](O[C@@H]3O[C@H](CO)[C@@H](O)[C@H](O)[C@H]3O[C@@H]3OC[C@@H](O)[C@H](O)[C@H]3O)C[C@]12C [Notoginsenoside R1, notoginsenoside R1] | 563000
* CC(C)=CCC[C@]1(C)CC[C@]2(C)[C@H]3CC[C@@]4(C)[C@@H](CCC(=O)[C@@H]4C)[C@]3(C)CC[C@@]2(C)C1 | 6.76
* CC(C)=CCC/C(C)=C/COc1ccc2ccc(=O)oc2c1 | 0.0153
* CC(C)=CCCC(C)(O)[C@H]1CC[C@]2(C)[C@@H]1[C@H](O)C[C@@H]1[C@@]3(C)CC[C@H](O)C(C)(C)[C@@H]3CC[C@]12C (stereo in doubt) | 0.0671
* COc1ccc2ccc(=O)oc2c1CC=C(C)C | 85.1
* CC(C)=CC(=O)O[C@H]1Cc2cc3ccc(=O)oc3cc2OC1(C)C | 2.05
* CC(C)=CCOc1c2ccoc2cc2oc(=O)ccc12 | 0.0753

###

// Kd lookup, one value per entry
- assayTarget: SelH (Homo sapiens, UniProt Q8IZQ5, U44C)
- testDetails: Surface plasmon resonance (SPR) detection of affinity between compounds and SelH
- Format: binding
- experimentalContext: SPR Biacore 8K, single-cycle kinetics; Table 3; read-out: KD binding of macrolides and cyclic peptides to SelH
observable: Kd (µM)

• CO[C@@H]1[C@@H](O[C@@H]2O[C@H](C)[C@@H](O[C@H]3C[C@@](C)(O)[C@@H](OC(=O)CC(C)C)[C@H](C)O3)[C@H](N(C)C)[C@H]2O)[C@@H](CC=O)C[C@@H](C)[C@@H](O[C@H]2CC[C@H](N(C)C)[C@@H](C)O2)/C=C/C=C/C[C@@H](C)OC(=O)C[C@H]1O = 2.48
• CC[C@H]1OC(=O)[C@H](C)[C@@H](O[C@H]2C[C@@](C)(OC)[C@@H](O)[C@H](C)O2)[C@H](C)[C@@H](O[C@@H]2O[C@H](C)C[C@H](N(C)C)[C@H]2O)[C@](C)(O)C[C@@H](C)CN(C)[C@H](C)[C@@H](O)[C@]1(C)O = 537
• CO[C@@H]1[C@@H](O[C@@H]2O[C@H](C)[C@@H](O[C@H]3C[C@@](C)(O)[C@@H](O)[C@H](C)O3)[C@H](N(C)C)[C@H]2O)[C@@H](CC=O)C[C@@H](C)[C@@H](O[C@H]2CC[C@H](N(C)C)[C@@H](C)O2)/C=C/C=C/C[C@@H](C)OC(=O)C[C@H]1O = 4.38

###

- System: mouse breast cancer 4T1 cells
- testDetails: MTT in-vitro anti-tumor activity test, 4T1
- experimentalContext: Mus musculus, 4T1, 48 h, read-out: IC50 cytotoxic effect on 4T1
pIC50: −log10 of the molar value.
observable: pIC50

- CC(C)=CC(=O)O[C@H]1Cc2cc3ccc(=O)oc3cc2OC1(C)C [Decursin, decursin]: 4.42
- CC(C)=CCOc1c2ccoc2cc2oc(=O)ccc12 [Iso-imperatorin, iso-imperatorin]: 4.31

###

- Test system: human non-small cell lung cancer cells A549
- testDetails: MTT in-vitro anti-tumor activity test, A549
- experimentalContext: read-out: IC50 cytotoxic effect on A549; MTT, 48 hours; Table 1
observable: IC50 (µM)

• CC(C)=CCCC(C)(O)[C@H]1CC[C@]2(C)[C@@H]1[C@H](O)C[C@@H]1[C@@]3(C)CC[C@H](O)C(C)(C)[C@@H]3CC[C@]12C (stereo in doubt) [Protopanaxadiol, protopanoxadiol] = 54.4
• COc1ccc2ccc(=O)oc2c1CC=C(C)C [Osthol, osthol] = 81.2
• CC(C)=CCC[C@]1(C)CC[C@]2(C)[C@H]3CC[C@@]4(C)[C@@H](CCC(=O)[C@@H]4C)[C@]3(C)CC[C@@]2(C)C1 [Shionon, shionon] = 92.7

###

Measured Kd values are reported for all entries that follow.
- assayTarget: SelH (Homo sapiens, UniProt Q8IZQ5, U44C)
- testDetails: Surface plasmon resonance (SPR) detection of affinity between compounds and SelH
- Type: binding
- experimentalContext: SPR Biacore 8K, single-cycle kinetics; Table 3; read-out: KD binding of macrolides and cyclic peptides to SelH
observable: Kd (µM)

* CO[C@@H]1[C@@H](O[C@@H]2O[C@H](C)[C@@H](O[C@H]3C[C@@](C)(O)[C@@H](OC(=O)CC(C)C)[C@H](C)O3)[C@H](N(C)C)[C@H]2O)[C@@H](CC=O)C[C@@H](C)C(=O)/C=C/[C@@H]2O[C@H]2C[C@@H](C)OC(=O)C[C@H]1OC(C)=O | 4.4
* CC[C@H]1OC(=O)[C@H](C)[C@@H](O[C@H]2C[C@@](C)(OC)[C@@H](O)[C@H](C)O2)[C@H](C)[C@@H](O[C@@H]2O[C@H](C)C[C@H](N(C)C)[C@H]2O)[C@](C)(O)C[C@@H](C)C(=O)[C@H](C)[C@@H](O)[C@]1(C)O | 10.4
